tested on: KB-3-1; assay: Cytotoxic Profiling of Annotated Libraries Using Quantitative High-Throughput Screening (AID 1296008); conditions: Five cell lines viability, CellTiter-Glo ATP luminescence, 48-72 h; stronger effect = lower value; also: % is scaled to controls: 0 for no effect and ±100 for the full control effect; nearly all actives have a fitted effect of over 60% in size
Results filed as inconclusive are left out.
reported_property: max response (%)
Dear colleague, please return just the value in %, with no unit written.

                                   compound  reported_property  quantity_unit  measured
0  CN(C)CCOC(=O)C(c1ccccc1)C1(O)CCCC1 (configuration not stated)       max response              %       -12
1  CN1CCN(c2c(F)cc3c(=O)c(C(=O)O)cn4c3c2SCC4)CC1       max response              %     -15.8
2  CCC1Nc2cc(Cl)c(S(N)(=O)=O)cc2S(=O)(=O)N1 (configuration not stated)       max response              %      -3.7
3                     CCCCCCCCCCCCCCCC(=O)O       max response              %      2.75

Name the reported max response value associated with the compound C#C[C@]1(O)CC[C@H]2[C@@H]3[C@H](C)CC4=C(CCC(=O)C4)[C@H]3CC[C@@]21C
-4.12

Name the reported max response value associated with the compound CC(C)[C@@H]1CC[C@@H](C)CC1=O
-7.81

Name the reported max response value associated with the compound O=C(Nc1cccc(C2=NCCN2)c1)Nc1cccc(C2=NCCN2)c1
-7.99

Name the reported max response value associated with the compound COc1cc(C(=O)N2CCCCCCC2)cc(OC)c1OC
-4.88

Name the reported max response value associated with the compound CC[C@H](c1ccc(O)cc1)[C@@H](CC)c1ccc(O)cc1
5.55

Name the reported max response value associated with the compound CCN(CC)CCOc1ccccc1C(=O)CCc1ccccc1
-2.43

Name the reported max response value associated with the compound NC(=O)c1ccccc1O
10.4

Name the reported max response value associated with the compound Cc1ccc(O)c([C@H](CCN(C(C)C)C(C)C)c2ccccc2)c1
-10.6

====

system: CP191; assay: qHTS profiling for inhibitors of Plasmodium falciparum proliferation (AID 504749); also: nearly all actives have a fitted effect of over 60% in size; also: potency is read from the fitted curve at half-maximal effect; conditions: P. falciparum in erythrocytes, SYBR Green DNA, 72 h; series mostly up to 28.7 µM
Records with an inconclusive call do not appear. Calls of active or inactive are those of the source. Calls follow the shape of the dose curve; as a rule, active = well fitted inhibition curve with a large enough effect; inconclusive = small, poorly fitted or top-dose-only effect; inactive = flat fitted curve, though single readings scatter.
reported_property: Potency

Some solved cases for reference:
>>> print(df.to_string())
                                   compound  experimental_target  reported_property          measured
0  CC(C)CCCC(C)N (configuration not stated)                CP191            Potency          inactive
1        NS(=O)(=O)c1ccc(Cl)c(S(N)(=O)=O)c1                CP191            Potency          inactive
2         CCCCCCCCCCCCCC[N+](C)(C)Cc1ccccc1                CP191            Potency  2510 nM (active)
3  CC(C)Nc1cccnc1N1CCN(C(=O)c2cc3cc(NS(C)(=O)=O)ccc3[nH]2)CC1                CP191            Potency          inactive
4              CCCCc1cc2ccccc2c(OCCN(C)C)n1                CP191            Potency          inactive
5  CCCCCCCCNC(C)C(O)c1ccc(SC(C)C)cc1 (configuration not stated)                CP191            Potency   794 nM (active)

Name the reported Potency value associated with the compound CC(=O)NCCCCCC(=O)O
inactive
